tested on: S. cerevisiae Mot1-301 ts growth rescue, BacTiter-Glo ATP luminescence; assay: restored Mot1-301 yeast growth at 38.5C – whole organism, S. cerevisiae, Mot1-301 ts mutant, luminescence, dose retest, SUMOylation pathway inhibitor project, confirmation (AID 463204);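 also: growth at restrictive 38.5 degrees C of Mot1-301 OY566 strain; actives raise luminescence by restoring growth of the ts mutant at high temperature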
Calls of active or inactive are those of the source.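 The calls were made as follows: active = AC50 no more than ten times the top concentration tested, that is within one log above it; inconclusive = flat curve fit with activity between 30% and 70%, or invalid poor fit; inactive = AC50 beyond ten times the top tested dose.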
Choose one outcome from this list and give only that: active, inactive

Use the examples below as a reference point.
[
  {
    "COMPOUND": "Cc1ccccc1-c1nnnn1C1CCS(=O)(=O)C1 (configuration not stated)",
    "TARGET OR SYSTEM": "S. cerevisiae Mot1-301 ts growth rescue, BacTiter-Glo ATP luminescence",
    "QUALITATIVE LABEL": "inactive"
  },
  {
    "COMPOUND": "CSc1cc(C)c(OCC(=O)Nc2c(C)nn(C)c2C)c(C)c1",
    "TARGET OR SYSTEM": "S. cerevisiae Mot1-301 ts growth rescue, BacTiter-Glo ATP luminescence",
    "QUALITATIVE LABEL": "inactive"
  }
]

Assay result, entry Cc1ccc(Sc2cnccc2C#N)cc1 — outcome?
inactive

Assay result, entry C=CCN1c2ccccc2[C@]23C[C@@H](C(=O)OC)N=C2NC(C(=O)OC)=C(C(=O)OC)[C@H]13 — outcome?
inactive

Assay result, entry COc1ccc(-n2nc(C(=O)NCC(=O)N3CCCC3)c3ccccc3c2=O)c(OC)c1 — outcome?
inactive

Assay result, entry COCC(C)n1c(C)cc(C(=O)CSc2ccc(NC(C)=O)cc2)c1C (configuration not stated) — outcome?
inactive

Assay result, entry CCCSc1nnc(NC(=O)CSc2sc3c(O)cc(=O)[nH]c3c2C#N)s1 — outcome?
inactive

Assay result, entry CN(C)c1ccc(/C=N\Nc2ccccn2)cc1 — outcome?
inactive

====

test system: S. cerevisiae Mot1-301 ts growth rescue, BacTiter-Glo ATP luminescence; assay: restored Mot1-301 yeast growth at 38.5C – whole organism, S. cerevisiae, Mot1-301 ts mutant, luminescence, dose retest, SUMOylation pathway inhibitor project, confirmation (AID 463204);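 also: growth at restrictive 38.5 degrees C of Mot1-301 OY566 strain; actives raise luminescence by restoring growth of the ts mutant at high temperature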
Activity calls are given as the source filed them.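 How the source made its calls: active means AC50 no more than ten times the top concentration tested, that is within one log above it; inconclusive means flat curve fit with activity between 30% and 70%, or invalid poor fit; inactive means AC50 beyond ten times the top tested dose.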
MEASURED PARAMETER: AC50

[
  {
    "COMPOUND": "CCOc1ccc(C(=O)Nc2ccc(N3CCN(C)CC3)cc2)cc1[N+](=O)[O-]",
    "AC50": "> 42 µM (inactive)"
  },
  {
    "COMPOUND": "O=C(COc1cccnc1[N+](=O)[O-])Nc1ccc2c(c1)CCC2",
    "AC50": "> 21 µM (inactive)"
  },
  {
    "COMPOUND": "CCN(CC)c1ccc(C=C2C(=O)OC(c3ccccc3)OC2=O)cc1 (stereo not given)",
    "AC50": "> 42 µM (inactive)"
  },
  {
    "COMPOUND": "CC(=O)Nc1cc2nn(-c3ccccc3)nc2cc1Cl",
    "AC50": "> 42 µM (inactive)"
  },
  {
    "COMPOUND": "COC(=O)C1C(c2ccc(OC)c(OC)c2)NC(c2ccc(OC)c(OC)c2)C(C(=O)OC)S1(=O)=O (stereo not given)",
    "AC50": "> 42 µM (inactive)"
  }
]

Need AC50, item CCN(CC)CCCN(Cc1cc2cc(OC)ccc2[nH]c1=O)C(=O)Nc1ccc(F)cc1
> 42 µM (inactive)

Need AC50, item O=C(Nc1ccccc1N1CCOCC1)c1cc(Br)c(Br)s1
> 42 µM (inactive)

Need AC50, item CC(C)(C)CC(=O)Nc1cc(S(=O)(=O)N2CCOCC2)ccc1N1CCCC1
> 42 µM (inactive)

Need AC50, item O=C(OCCCN=C1NS(=O)(=O)c2ccccc21)c1cccs1
> 42 µM (inactive)

Need AC50, item CCOC(=O)C1CCN(C(=O)c2ccc3c(c2)NC(=O)/C(=C/c2ccccc2)S3)CC1
> 42 µM (inactive)
